All figures here come from ChEMBL document CHEMBL3046161.

Could you please report measured inhibition zone (IZ) for the items listed next?
System: Klebsiella pneumoniae
Assay: Antibacterial activity against Klebsiella pneumoniae MTCC 109 assessed as growth inhibition at 3.12 to 50 ug/mL after 24 hr by agar disk diffusion method
Type: functional

// solved cases for inhibition zone (IZ) follow
CCOc1ccc(NC(=O)CNc2ccc(-c3nc(N4CC(C)CC(C)C4)nc(N4CC(C)CC(C)C4)n3)cc2)cc1 (stereo not drawn): <10 mm
CC(=O)Nc1ccc(NC(=O)CNc2ccc(-c3nc(N4CC(C)CC(C)C4)nc(N4CC(C)CC(C)C4)n3)cc2)cc1 (stereo not drawn): <10 mm

*Q* Fill: inhibition zone (IZ) (Klebsiella pneumoniae) for this compound COc1ccc(NC(=O)CNc2ccc(-c3nc(N4CC(C)CC(C)C4)nc(N4CC(C)CC(C)C4)n3)cc2)cc1 (stereo not drawn)
*A* <10 mm

---

System: Candida albicans
Test: Antifungal activity against Candida albicans MTCC 183 assessed as growth inhibition after 48 hr by agar streak dilution method
Type: functional
Conditions: MTCC 183, 48 h
METRIC: MIC

CC1CC(C)CN(c2nc(-c3ccc(NCC(=O)Nc4ccccc4)cc3)nc(N3CC(C)CC(C)C3)n2)C1 (stereo not drawn): > 50 µg/mL
CC1CC(C)CN(c2nc(-c3ccc(NCC(=O)Nc4ccc(I)cc4)cc3)nc(N3CC(C)CC(C)C3)n2)C1 (stereo not drawn): > 50 µg/mL

Let us move to another entry and its MIC.
*Q* Give recorded MIC. CC1CC(C)CN(c2nc(-c3ccc(NCC(=O)Nc4nc5ccccc5s4)cc3)nc(N3CC(C)CC(C)C3)n2)C1 (stereo not drawn)
*A* > 50 µg/mL

---

Could you please report measured inhibition zone (IZ) for the items listed next?
System: Salmonella typhi
Test: Antibacterial activity against Salmonella enterica subsp. enterica serovar Typhi MTCC 733 assessed as growth inhibition at 3.12 to 50 ug/mL after 24 hr by agar disk diffusion method
Format: functional
Give bare numbers, in mm.

Hi team, please reply with inhibition zone (IZ) for each item in this list.
1. CC1CC(C)CN(c2nc(-c3ccc(NCC(=O)Nc4nc5ccc([N+](=O)[O-])cc5s4)cc3)nc(N3CC(C)CC(C)C3)n2)C1 (stereo not given)
2. COc1ccc2nc(NC(=O)CNc3ccc(-c4nc(N5CC(C)CC(C)C5)nc(N5CC(C)CC(C)C5)n4)cc3)sc2c1 (stereo not given)
3. CC(=O)Nc1ccc2nc(NC(=O)CNc3ccc(-c4nc(N5CC(C)CC(C)C5)nc(N5CC(C)CC(C)C5)n4)cc3)sc2c1 (stereo not given)
4. CC1CC(C)CN(c2nc(-c3ccc(NCC(=O)Nc4ccc(C#N)cc4)cc3)nc(N3CC(C)CC(C)C3)n2)C1 (stereo not given)
5. CC1CC(C)CN(c2nc(-c3ccc(NCC(=O)Nc4nc5ccc(C#N)cc5s4)cc3)nc(N3CC(C)CC(C)C3)n2)C1 (stereo not given)

*A*
1: 19; 2: 20; 3: 17; 4: 20; 5: 18

Hi team, please reply with inhibition zone (IZ) for each item in this list.
1. Cc1ccc(NC(=O)CNc2ccc(-c3nc(N4CC(C)CC(C)C4)nc(N4CC(C)CC(C)C4)n3)cc2)cc1 (stereo not given)
2. CC1CC(C)CN(c2nc(-c3ccc(NCC(=O)Nc4nc5ccccc5s4)cc3)nc(N3CC(C)CC(C)C3)n2)C1 (stereo not given)
3. COc1ccc(NC(=O)CNc2ccc(-c3nc(N4CC(C)CC(C)C4)nc(N4CC(C)CC(C)C4)n3)cc2)cc1 (stereo not given)
4. CC1CC(C)CN(c2nc(-c3ccc(NCC(=O)Nc4nc5ccc(I)cc5s4)cc3)nc(N3CC(C)CC(C)C3)n2)C1 (stereo not given)
5. CC1CC(C)CN(c2nc(-c3ccc(NCC(=O)Nc4ccc(I)cc4)cc3)nc(N3CC(C)CC(C)C3)n2)C1 (stereo not given)
6. CC1CC(C)CN(c2nc(-c3ccc(NCC(=O)Nc4ccc(Br)cc4)cc3)nc(N3CC(C)CC(C)C3)n2)C1 (stereo not given)

*A*
[18, 12, 20, 17, 17, 20]

Hi team, please reply with inhibition zone (IZ) for each item in this list.
1. CC1CC(C)CN(c2nc(-c3ccc(NCC(=O)Nc4nc5ccc(Cl)cc5s4)cc3)nc(N3CC(C)CC(C)C3)n2)C1 (stereo not given)
2. CCOc1ccc2nc(NC(=O)CNc3ccc(-c4nc(N5CC(C)CC(C)C5)nc(N5CC(C)CC(C)C5)n4)cc3)sc2c1 (stereo not given)

*A*
1: 22; 2: 19
